// provenance: the nanobody polyreactivity screen of Harvey et al. (2022)

Assay: yeast display, Sf9 membrane polyspecificity reagent, FACS + sequencing; frameworks hold sequencing errors
ENDPOINT_LABEL: polyreactivity (PSR sort gate)

{"SEQUENCE_CODE": "QVQLVESGGGLVQAGGSLRLSCAASGSTLATYTMGWYRQAPGKERELVAAISFGGSTYYADSVKGRFTISRDNAKNTVYLQMNSLKPEDTAVYYCAVYGDSYWGASYYSDGYWGQGTQVTVSS", "ENDPOINT_RESULT": "low polyreactivity"}
{"SEQUENCE_CODE": "QVQLVESGGGLVQAGGSLRLSCAASGSTFTGNSMGWYRQAPGKERELVAAISRSGGSTFYADSVKGRFTISRDNAKNTVSLQMNSLKPEDTAVYYCATRYVVDMDYWGQGTQVTVSS", "ENDPOINT_RESULT": "high polyreactivity"}
{"SEQUENCE_CODE": "QVQLQEGGGGLVQAGGSLRLSCAASGYIFNGDWKGWYRQAPGKERELVATINYGATTNYADSVKGRFTISRDNAKNTVYLQMNSLKPEDTAVYYCAVGGHGAQLYVYWGQGTQVTVSN", "ENDPOINT_RESULT": "high polyreactivity"}
{"SEQUENCE_CODE": "QVQLVESGGGLVQAGGSLRLSCAASGSIFTINTMGWYRQAPGKERELVAAITGSGGITYYADSVKGRFTISRDNAKNTVYLQMNSLKPEDTAVYYCAADTGYVHDGYWGQGTQVTVSS", "ENDPOINT_RESULT": "low polyreactivity"}
{"SEQUENCE_CODE": "QVQLVESGGGLVQAGGSLRLSCAASGFTFDGYAIGWYRQAPGKERDLVAAISGAGGSTYYADSVKGRFTISRDNAKNTVYFQMNSLKPEDTAFYYCAAEWIADLSSPVWYDYWGQGTQVTVSS", "ENDPOINT_RESULT": "high polyreactivity"}
{"SEQUENCE_CODE": "QVQLVESGGVLVQAGGSLRLSCAASGLIFSRYVMGWYRQAPGKERELVAAISRSGGSTYYADSVKGRFTISRDNAKNTVYLQMNSLKPEDTAVYYCNKLAPAPEADDYWGQGTQLTVSS", "ENDPOINT_RESULT": "high polyreactivity"}
{"SEQUENCE_CODE": "QVQLVESGGGLVQAGGSLRLSCAASGSTFKSYAMGWYRQEPGKERELVAAITVSGGSTYYADSVKGRFTISRDNAKNTVYLQMNSLKPEDTAVYYCAADSVLLKDTGYDYWGQGTQVTVSS", "ENDPOINT_RESULT": "low polyreactivity"}
{"SEQUENCE_CODE": "QVQLVESGGGLVQAGGSLRLSCSASGSTFYVYAMGWYRQAPGKERELVAAITDSGGSTYADSVKGRFTISRDNAKNTVYLQMNSLKPEDTAVYADSTYNWYYYYWGQGTQVTVSS", "ENDPOINT_RESULT": "low polyreactivity"}
{"SEQUENCE_CODE": "QVQLVESGGGLVQAGGSLRLSCAASGFTFRRYVMGWYRQAPGKERELVAAISQSGGSTYYADSVKGRFTISRDNAKNTVYLQMNSLKPEDTAVYYCAAAKVPYGWEQSDYWGQGTQVTVSS", "ENDPOINT_RESULT": "high polyreactivity"}
{"SEQUENCE_CODE": "QVQLVESGGGLVQAGGSLRLSCAASGIICVKYTMGWYRQAPGKERELVAAISRSGGSTYYADSVKGRFTISRDNAKNTVYLQMNSLKPEDTAVYYCNAVSRKVYPGPMDYWGHGTQVTVSS", "ENDPOINT_RESULT": "high polyreactivity"}
{"SEQUENCE_CODE": "QVQIVESGGRLVQAGGSLRLSCAASGSIFVWYAMGWYRQAPGKERELVSRITSGGRTNYADSVKGRFTISRDNAKNTVYLQMNSLKPEDTAVYYCAAGRVSWSPYYYWGQATQVTVSS", "ENDPOINT_RESULT": "high polyreactivity"}
